Measured pKd, listed per entry.
- assayed_system: DtpB (Escherichia coli)
- Construct: purified membrane protein; reconstituted in liposomes for transport; Nb132 complex for crystals
- Sequence (P36837 whole entry): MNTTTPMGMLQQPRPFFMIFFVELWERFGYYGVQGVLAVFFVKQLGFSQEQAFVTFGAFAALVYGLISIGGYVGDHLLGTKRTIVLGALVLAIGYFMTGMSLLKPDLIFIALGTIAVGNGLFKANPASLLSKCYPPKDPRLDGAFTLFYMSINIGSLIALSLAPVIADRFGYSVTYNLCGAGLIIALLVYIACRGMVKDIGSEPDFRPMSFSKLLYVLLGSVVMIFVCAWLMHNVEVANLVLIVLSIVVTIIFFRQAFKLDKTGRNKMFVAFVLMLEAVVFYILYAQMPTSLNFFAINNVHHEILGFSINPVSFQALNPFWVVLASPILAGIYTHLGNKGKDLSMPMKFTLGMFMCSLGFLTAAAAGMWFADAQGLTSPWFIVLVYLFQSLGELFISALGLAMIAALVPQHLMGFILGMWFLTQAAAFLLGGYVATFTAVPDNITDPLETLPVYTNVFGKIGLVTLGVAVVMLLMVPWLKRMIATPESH
- assay_info: thermal unfolding titration, irreversible kinetic (Hall) model
pKd: −log10 of the molar value. Residues, ends and D or L forms follow the SMILES beside them.
quantity_name: pKd

* O=C(O)[C@H](Cc1ccc(O)cc1)NC(=O)[C@@H]1CCCN1 [PY] (H-Pro-Tyr-OH) | 3.69
* C[C@H](N)C(=O)N[C@@H](Cc1c[nH]cn1)C(=O)O [AH] (H-Ala-His-OH) | 4.00
* C[C@H](N)C(=O)N[C@@H](CCCCN)C(=O)O [AK] (H-Ala-Lys-OH) | 2.75
* N[C@@H](CO)C(=O)N[C@@H](Cc1c[nH]cn1)C(=O)O [SH] (H-Ser-His-OH) | 3.45

Cited source for all entries: paper doi:10.1101/2023.02.14.528348v1
